# Test system: 3T3 cell line
# procedure_text: NRU cell viability assay
# Assay type: cell-based, murine
# details: 3T3, NRU, 24 h
quantity_name: IC50 (µM)
Provide the reading as a plain figure in µM.

I'd like to know its IC50. The substance in question is N(π),N(τ)-bis(methyl)-L-Histidine tetradecyl amide [DMHNHC14] 26.1

###

# Test system: 3T3 cell line
# procedure_text: NRU cell viability assay
# Type: cell-based, murine
# details: Mus musculus, NIH3T3; 3T3, NRU, 24 h
quantity_name: IC50

I'd like to know its IC50. The molecule in question is CCCCCCCCCCCCCC(=O)O [Sodium myristate, sodium myristate] > 50 µM
